B1: library; numbered along this chain (parent)
chain: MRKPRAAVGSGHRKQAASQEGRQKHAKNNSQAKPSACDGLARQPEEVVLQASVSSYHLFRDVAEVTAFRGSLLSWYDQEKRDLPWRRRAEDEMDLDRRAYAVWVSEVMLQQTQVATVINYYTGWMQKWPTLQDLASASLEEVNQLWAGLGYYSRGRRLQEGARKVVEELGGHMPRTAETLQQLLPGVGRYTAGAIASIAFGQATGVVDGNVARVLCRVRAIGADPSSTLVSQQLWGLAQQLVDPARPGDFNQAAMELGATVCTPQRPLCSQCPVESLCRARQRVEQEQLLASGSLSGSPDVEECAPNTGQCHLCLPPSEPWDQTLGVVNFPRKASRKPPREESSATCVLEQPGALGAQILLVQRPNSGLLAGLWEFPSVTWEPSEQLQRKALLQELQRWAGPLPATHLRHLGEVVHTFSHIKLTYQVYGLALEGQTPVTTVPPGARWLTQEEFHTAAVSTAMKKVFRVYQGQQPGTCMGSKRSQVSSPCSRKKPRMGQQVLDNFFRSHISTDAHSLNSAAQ

Variants of: B1
Assay: 8OG:A repair function score (normalized; synonymous = 0, nonsense = -1) (normalized log-likelihood score); higher = more repair activity (WT-like);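 further: cells sorted at 72 h after reporter transfection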
Conditions: with 8OG:A DNA repair reporter (GFP) in HEK-293 MUTYH KO cells
Decision: 8OG:A repair function score >= -0.01 yields 1, all other cases yield 0.

VAR	LABEL
S226Q	1
V166P	0
V362N	0
M478S	1
E382M	1
Q288G	0
E287C	0
M255V	0
Q521Y	1
D94S	0
D249L	0
Q78P	0
S344L	1
G475W	0
D243C	0
S490N	1
F453C	0
E287I	0
E141L	0
L145T	1
L361N	0
Q132S	0
P299F	1
T406M	0
Q240T	0
S292E	0
T191H	0
P442H	1
L241A	0
A220G	0
Y428C	0
E168R	0
L313P	0
L277W	1
Q43E	1
S515V	1
R175F	0
L234H	0
E106S	0
N143W	0
S490G	0
E168Y	0
E256C	0
L501P	1
Q473V	1
G161T	0

Recorded values, source the supplement of paper PMC11908140.
